test system: Clostridium saccharolyticum; test: IC25 growth inhibition; higher = less potent;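 note: lowest concentration where monotonic median growth AUC falls below 0.75 of drug-free control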
METRIC NAME: IC25 growth inhibition

INSERT INTO measurements (compound, metric_name, result) VALUES
  ('C/C=C(/C(=C/C)c1ccc(O)cc1)c1ccc(O)cc1', 'IC25 growth inhibition', '≤ 40 µM'),
  ('C[C@H]1O[C@H](O[C@H]2[C@H](O)[C@@H](O)[C@@H](O[C@H]3[C@H](O)[C@@H](O)C(O)O[C@@H]3CO)O[C@@H]2CO)[C@H](O)[C@@H](O)[C@@H]1N[C@H]1C=C(CO)[C@@H](O)[C@H](O)[C@H]1O (stereo not given in full)', 'IC25 growth inhibition', '> 160 µM'),
  ('Clc1ccc(COC(Cn2ccnc2)c2ccc(Cl)cc2Cl)c(Cl)c1 (stereo not given)', 'IC25 growth inhibition', '≤ 40 µM'),
  ('CN(C)C(=O)C(CCN1CCC(O)(c2ccc(Cl)cc2)CC1)(c1ccccc1)c1ccccc1 [Loperamide]', 'IC25 growth inhibition', '> 80 µM'),
  ('CN[C@H](CC(C)C)C(=O)N[C@H]1C(=O)N[C@@H](CC(N)=O)C(=O)N[C@H]2C(=O)N[C@H]3C(=O)N[C@H](C(=O)N[C@H](C(=O)O)c4cc(O)cc(O)c4-c4cc3ccc4O)[C@H](O)c3ccc(c(Cl)c3)Oc3cc2cc(c3O[C@@H]2O[C@H](CO)[C@@H](O)[C@H](O)[C@H]2O[C@H]2C[C@](C)(N)[C@H](O)[C@H](C)O2)Oc2ccc(cc2Cl)[C@H]1O', 'IC25 growth inhibition', '< 1.25 µM'),
  ('COc1cccc2c1C(=O)c1c(O)c3c(c(O)c1C2=O)C[C@@](O)(C(=O)CO)C[C@@H]3O[C@H]1C[C@H](N)[C@H](O)[C@H](C)O1', 'IC25 growth inhibition', '≤ 20 µM'),
  ('O=c1oc2ccccc2c(O)c1Cc1c(O)c2ccccc2oc1=O', 'IC25 growth inhibition', '≤ 40 µM'),
  ('CN(Cc1cnc2nc(N)nc(N)c2n1)c1ccc(C(=O)N[C@@H](CCC(=O)O)C(=O)O)cc1 [Methotrexate]', 'IC25 growth inhibition', '> 80 µM'),
  ('CCc1oc2ccccc2c1C(=O)c1cc(Br)c(O)c(Br)c1', 'IC25 growth inhibition', '≤ 10 µM'),
  ('Cc1c(N(C)CS(=O)(=O)O)c(=O)n(-c2ccccc2)n1C', 'IC25 growth inhibition', '> 160 µM'),
  ('CN(C)C(=N)NC(=N)N', 'IC25 growth inhibition', '> 160 µM'),
  ('Cc1ncc([N+](=O)[O-])n1CCO', 'IC25 growth inhibition', '< 1.25 µM'),
  ('CN1CCN(C2=Nc3ccccc3Oc3ccc(Cl)cc32)CC1', 'IC25 growth inhibition', '> 160 µM'),
  ('CN(C)CC/C=C1/c2ccccc2Sc2ccc(Cl)cc21', 'IC25 growth inhibition', '≤ 80 µM'),
  ('Clc1ccccc1C(c1ccccc1)(c1ccccc1)n1ccnc1', 'IC25 growth inhibition', '≤ 40 µM');

====

tested on: Fusobacterium nucleatum subsp. Nucleatum; test: IC25 growth inhibition; higher = less potent
METRIC NAME: IC25 growth inhibition

INSERT INTO results (compound, metric_name, result) VALUES
  ('OC(Cn1cncn1)(Cn1cncn1)c1ccc(F)cc1F', 'IC25 growth inhibition', '> 160 µM'),
  ('CCN(CC)CCOc1ccc(C(=C(Cl)c2ccccc2)c2ccccc2)cc1', 'IC25 growth inhibition', '≤ 80 µM'),
  ('COc1cccc2c1C(=O)c1c(O)c3c(c(O)c1C2=O)C[C@@](O)(C(=O)CO)C[C@@H]3O[C@H]1C[C@H](N)[C@H](O)[C@H](C)O1', 'IC25 growth inhibition', '> 160 µM'),
  ('C#C[C@]1(O)CC[C@H]2[C@@H]3CCc4cc(O)ccc4[C@H]3CC[C@@]21C', 'IC25 growth inhibition', '> 80 µM'),
  ('CCN(CC)C(C)CN1c2ccccc2Sc2ccccc21 (stereo unspecified)', 'IC25 growth inhibition', '> 80 µM'),
  ('COc1cc(C(=O)NS(=O)(=O)c2ccccc2C)ccc1Cc1cn(C)c2ccc(NC(=O)OC3CCCC3)cc12', 'IC25 growth inhibition', '> 80 µM');
